Quick reference: GI50 of the listed items.
Test system: NCI-H23
method notes: NCI tumour cell line growth inhibition, 48 h
Calls of active or inactive are those of the source. Rule as the data show it: active = GI50 up to about 1.1 µM and inactive = higher.

Solved cases (3 shown):
INSERT INTO assay_data (molecule, value_observed) VALUES
  ('CC(C)COC(=O)OC(=O)c1ccc(N(C)Cc2cnc3nc(N)nc(N)c3n2)cc1', '11 µM (inactive)'),
  ('OCCNc1nc2c(N3CCCC3)nc(N3CCNCC3)nc2nc1NCc1ccccc1', '18.2 µM (inactive)'),
  ('COc1cc(C2SCC(=O)N2c2ccc(NC(C)=O)cc2)cc(OC)c1OC (stereo unspecified)', '> 100 µM (inactive)');

Exercise: Could you tell me which GI50 is on file for O=C1C=CC(=O)c2c1ccc1c3ccccc3n(-c3ccccn3)c21 ?
Solution: 36.6 µM (inactive)

Exercise: Okay, and O=C(O)CCC/N=C(\C(=N\CCCC(=O)O)c1ccccc1)c1ccccc1 ?
Solution: > 100 µM (inactive)

Exercise: Okay, and Cc1[nH]c2ncn3nc(C(Cl)(Cl)Cl)nc3c2c1Cc1ccccc1 ?
Solution: > 100 µM (inactive)

Exercise: Okay, and COc1ccc(C(O)CC(O)(C(F)(F)F)C(F)(F)F)cc1 (stereo unspecified) ?
Solution: 19.5 µM (inactive)

Exercise: Okay, and C[C@]12Cc3conc3C(O)=C1CC[C@@H]1C2CC[C@@]2(C)C1CC[C@]2(C)O (stereo partly specified) ?
Solution: 19.5 µM (inactive)

Exercise: Okay, and CCOP(=O)(C[S+](C)[O-])O[C@@H]1C[C@H](C)CC[C@H]1C(C)C (stereo partly specified) ?
Solution: 4.13 µM (inactive)

Exercise: Okay, and CC1=C(Cl)C[C@@H](/C(C)=C\Cl)O[C@@]1(O)C(Br)Br ?
Solution: 41.9 µM (inactive)

Exercise: Okay, and CC(=O)NCCc1c(-c2[nH]c3ccccc3c2CCNC(C)=O)[nH]c2ccccc12 ?
Solution: > 100 µM (inactive)

====

System: SK-MEL-28
method notes: NCI tumour cell line growth inhibition, 48 h
Active and inactive are the calls of the source. No stated cut-off is given here; in the data, active = GI50 up to about 1.1 µM and inactive = higher.
Quick reference: GI50 of the listed items.

INSERT INTO assay_data (compound, value_observed) VALUES
  ('COC(=O)/C=C/c1cc2c(cc1-c1c(C(=O)O)cc(OC)c(OC)c1OC)OCO2', '> 10 µM (inactive)');

Exercise: So what GI50 did Oc1c(/N=N/c2ccccc2)c2ccccc2c2ccc3ccccc3c12 get with SK-MEL-28?
Solution: > 100 µM (inactive)

Exercise: Okay, and CCCCCCCCCCCCCCCCOP(=O)(O)OCC(NC(C)=O)C(=O)O (centres undefined) ?
Solution: > 100 µM (inactive)

Exercise: Okay, and CC(=O)/C(=C\n1c(=S)[nH]c2ccc([N+](=O)[O-])cc21)C(=O)Nc1ccccc1C ?
Solution: > 100 µM (inactive)

====

System: DLD-1
method notes: NCI tumour cell line growth inhibition, 48 h
Active and inactive are the calls of the source. Rule as the data show it: active = GI50 up to about 1.1 µM and inactive = higher.
Quick reference: GI50 of the listed items.

Solved cases (7 shown):
INSERT INTO measurements (molecule, value_observed) VALUES
  ('CCCCCCN(CCCCCC)C1=CC(=O)C(=O)c2ccccc21', '15.2 µM (inactive)'),
  ('Cc1[nH]c(O)nc1C(=O)c1ccc(-n2ccnc2)cc1', '> 100 µM (inactive)'),
  ('CON(C)C(=O)CCCO', '> 100 µM (inactive)'),
  ('Cc1ccc(C2C(Cl)C(=O)N2n2cnc3ccccc3c2=O)cc1 (stereo not drawn)', '> 100 µM (inactive)'),
  ('CCOC(=O)C1=C(C)N(NC(=O)OC)C2(N)N(NC(=O)OC)C(C)=C(C(=O)OCC)C12C#N (stereo not drawn)', '> 100 µM (inactive)'),
  ('Cc1c2ccccc2c(=O)n2c(-c3ccccn3)cccc12', '> 100 µM (inactive)'),
  ('N#Cc1c(-c2ccc(Cl)cc2)c(-c2ccc(Cl)cc2)nn(CCOC(=O)CCC(=O)O)c1=O', '4.13 µM (inactive)');

Here is another molecule to look at.
Exercise: Could you tell me which GI50 is on file for CCC(=O)O[C@@H]1C2C(OC(C)=O)C34COC(C)([C@@H]3C3C(C[C@]3(C)OC(C)=O)[C@@H](OC(=O)c3ccccc3)C4=O)[C@H](OC(C)=O)[C@@]2(OC(C)=O)C[C@@H]1C (stereo partly drawn) ?
Solution: > 100 µM (inactive)

The measurements presented in this section are drawn from ChEMBL document CHEMBL1201862.
